B1: Gamma-crystallin S, residues 96 to 176; numbered along this chain, P22914 (parent)
chain: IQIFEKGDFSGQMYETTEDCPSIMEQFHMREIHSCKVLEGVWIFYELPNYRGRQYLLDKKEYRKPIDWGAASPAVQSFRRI

Variants of: B1
method_summary: abundance fitness (aPCA) (normalised: wild type 0, dead -1); higher = more abundant; growth selection in yeast, the domain comes from the species named
details: Homo sapiens
reported_endpoint: abundance fitness

[[record]]
variant_key = "L56Q"
reported_endpoint = "abundance fitness"
observed_result = -0.052

[[record]]
variant_key = "E46M"
reported_endpoint = "abundance fitness"
observed_result = -0.21

[[record]]
variant_key = "Q2H"
reported_endpoint = "abundance fitness"
observed_result = 0.088

[[record]]
variant_key = "H33W"
reported_endpoint = "abundance fitness"
observed_result = 0.062

[[record]]
variant_key = "E5N"
reported_endpoint = "abundance fitness"
observed_result = -0.062

[[record]]
variant_key = "R30F"
reported_endpoint = "abundance fitness"
observed_result = 0.005

[[record]]
variant_key = "F9S"
reported_endpoint = "abundance fitness"
observed_result = -0.068

[[record]]
variant_key = "Q12N"
reported_endpoint = "abundance fitness"
observed_result = 0.09

[[record]]
variant_key = "D19Y"
reported_endpoint = "abundance fitness"
observed_result = 0.009

[[record]]
variant_key = "G40V"
reported_endpoint = "abundance fitness"
observed_result = -1.06

[[record]]
variant_key = "E5H"
reported_endpoint = "abundance fitness"
observed_result = -0.041

[[record]]
variant_key = "Q54G"
reported_endpoint = "abundance fitness"
observed_result = -0.048

[[record]]
variant_key = "E31C"
reported_endpoint = "abundance fitness"
observed_result = -0.13

[[record]]
variant_key = "E31T"
reported_endpoint = "abundance fitness"
observed_result = 0.106

[[record]]
variant_key = "P73G"
reported_endpoint = "abundance fitness"
observed_result = -0.309

[[record]]
variant_key = "D19L"
reported_endpoint = "abundance fitness"
observed_result = -0.124

[[record]]
variant_key = "I81Q"
reported_endpoint = "abundance fitness"
observed_result = 0.045

[[record]]
variant_key = "Q76G"
reported_endpoint = "abundance fitness"
observed_result = -0.066

[[record]]
variant_key = "G7K"
reported_endpoint = "abundance fitness"
observed_result = 0.079

[[record]]
variant_key = "M24A"
reported_endpoint = "abundance fitness"
observed_result = -0.054

[[record]]
variant_key = "K59Y"
reported_endpoint = "abundance fitness"
observed_result = -0.077

[[record]]
variant_key = "P21R"
reported_endpoint = "abundance fitness"
observed_result = -0.106

[[record]]
variant_key = "M29S"
reported_endpoint = "abundance fitness"
observed_result = 0.063

[[record]]
variant_key = "E31I"
reported_endpoint = "abundance fitness"
observed_result = 0.05

[[record]]
variant_key = "W68M"
reported_endpoint = "abundance fitness"
observed_result = 0.131

[[record]]
variant_key = "Y50Q"
reported_endpoint = "abundance fitness"
observed_result = -0.356

[[record]]
variant_key = "Y45C"
reported_endpoint = "abundance fitness"
observed_result = -0.273

[[record]]
variant_key = "W42Q"
reported_endpoint = "abundance fitness"
observed_result = -0.906

[[record]]
variant_key = "L38I"
reported_endpoint = "abundance fitness"
observed_result = -0.15

[[record]]
variant_key = "E5K"
reported_endpoint = "abundance fitness"
observed_result = -0.007

[[record]]
variant_key = "Y62P"
reported_endpoint = "abundance fitness"
observed_result = 0.177

[[record]]
variant_key = "G11M"
reported_endpoint = "abundance fitness"
observed_result = 0.062

[[record]]
variant_key = "I1G"
reported_endpoint = "abundance fitness"
observed_result = -1.18

[[record]]
variant_key = "V75R"
reported_endpoint = "abundance fitness"
observed_result = -0.665

[[record]]
variant_key = "D8N"
reported_endpoint = "abundance fitness"
observed_result = 0.074

[[record]]
variant_key = "G7D"
reported_endpoint = "abundance fitness"
observed_result = -0.019

[[record]]
variant_key = "G11D"
reported_endpoint = "abundance fitness"
observed_result = -0.009

[[record]]
variant_key = "M13N"
reported_endpoint = "abundance fitness"
observed_result = -0.083

[[record]]
variant_key = "M29I"
reported_endpoint = "abundance fitness"
observed_result = -0.015

[[record]]
variant_key = "L56D"
reported_endpoint = "abundance fitness"
observed_result = 0.309

[[record]]
variant_key = "R51L"
reported_endpoint = "abundance fitness"
observed_result = -0.019

[[record]]
variant_key = "K36S"
reported_endpoint = "abundance fitness"
observed_result = 0.015

